Hello, the source for this data is paper PMC4926125, in case you need it.

# Assay text: Toxicokinetics of cereulide in rabbits after a single intravenous injection (plasma, UPLC-MS/MS)
# Type: in vivo, New Zealand White rabbits
# Reported conditions: both sexes, New Zealand White, iv, 5 ug, single i.v. 5 μg cereulide/rabbit, plasma, UPLC-MS/MS, non-compartmental, n = 8, mean ± SD, read-out: AUC, area under the curve for the plasma concentration until the last time point
Attribute measured: AUC(0-t) (ng·h/mL)
Write the answer as a number in ng·h/mL, unit excluded.

Please give the measured AUC(0-t) for this compound: CC(C)C[C@H]1OC(=O)[C@H](C(C)C)NC(=O)[C@H](C(C)C)OC(=O)[C@@H](C)NC(=O)[C@@H](CC(C)C)OC(=O)[C@H](C(C)C)NC(=O)[C@H](C(C)C)OC(=O)[C@@H](C)NC(=O)[C@@H](CC(C)C)OC(=O)[C@H](C(C)C)NC(=O)[C@H](C(C)C)OC(=O)[C@@H](C)NC1=O [cereulide]
321

---

# Assay text: Toxicokinetics of cereulide in rabbits after a single intravenous injection (plasma, UPLC-MS/MS)
# Type: in vivo, New Zealand White rabbits
# Reported conditions: both sexes, New Zealand White, iv, 5 ug, single i.v. 5 μg cereulide/rabbit, plasma, UPLC-MS/MS, non-compartmental, n = 8, mean ± SD, read-out: HL_Lambda_z, elimination half-life (converted)
# Experimental: A total number of eight rabbits (half female and half male) were used to evaluate the toxicokinetics of cereulide after a single administration of 5 μg cereulide. All plasma samples at different time points were collected, and the concentrations of cereulide were quantified by UPLC-MS/MS assay. The dynamic curve of cereulide in the plasma of rabbits is shown in Figure 3a, and toxicokinetic parameters were calculated using a non-compartmental model as shown in Table 1. […]
Attribute measured: half-life (h)
Write the answer as a number in h, unit excluded.

Please give the measured half-life for this compound: CC(C)C[C@H]1OC(=O)[C@H](C(C)C)NC(=O)[C@H](C(C)C)OC(=O)[C@@H](C)NC(=O)[C@@H](CC(C)C)OC(=O)[C@H](C(C)C)NC(=O)[C@H](C(C)C)OC(=O)[C@@H](C)NC(=O)[C@@H](CC(C)C)OC(=O)[C@H](C(C)C)NC(=O)[C@H](C(C)C)OC(=O)[C@@H](C)NC1=O [cereulide]
10.8

---

# Assay text: Toxicokinetics of cereulide in rabbits after a single intravenous injection (plasma, UPLC-MS/MS)
# Type: in vivo, New Zealand White rabbits
# Reported conditions: both sexes, New Zealand White, iv, 5 ug, single i.v. 5 μg cereulide/rabbit, plasma, UPLC-MS/MS, non-compartmental, n = 8, mean ± SD, read-out: Cl, clearance (converted)
# Protocol: A total number of eight rabbits (half female and half male) were used to evaluate the toxicokinetics of cereulide after a single administration of 5 μg cereulide. All plasma samples at different time points were collected, and the concentrations of cereulide were quantified by UPLC-MS/MS assay. The dynamic curve of cereulide in the plasma of rabbits is shown in Figure 3a, and toxicokinetic parameters were calculated using a non-compartmental model as shown in Table 1. […]
Attribute measured: clearance (mL/min)
Write the answer as a number in mL/min, unit excluded.

Please give the measured clearance for this compound: CC(C)C[C@H]1OC(=O)[C@H](C(C)C)NC(=O)[C@H](C(C)C)OC(=O)[C@@H](C)NC(=O)[C@@H](CC(C)C)OC(=O)[C@H](C(C)C)NC(=O)[C@H](C(C)C)OC(=O)[C@@H](C)NC(=O)[C@@H](CC(C)C)OC(=O)[C@H](C(C)C)NC(=O)[C@H](C(C)C)OC(=O)[C@@H](C)NC1=O [cereulide]
0.318
